Consider the following compounds and their measured composite z-score readings.
Experiment: small-molecule microarray binders of probe aNog, primary screen, biochemical, biotinylated probe, 635/667 nm fluorescence (AID 1115);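 note: probe is biotinylated aNog protein used at 0.15 µg/mL for 1 h at 4 C; z-score combines 667 nm fluorescence of each spot with its signal to noise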
Conditions: higher = more signal
Enter the number alone.

COc1ccc([C@H]2OC[C@@H]3CC4(CC=CC4)C(=O)N32)cc1; -0.196
C=CCNC(=O)[C@@H]1[C@H]2C(=O)O[C@H](c3ccccc3)[C@H](c3ccccc3)N2[C@H](c2ccccc2OCCO)[C@@]12C(=O)N(C(=O)OCCOC)c1ccc(C#CCNC(N)=O)cc12; 0.658
COc1ccc(CCN2C(=O)[C@@]3(c4ccc([N+](=O)[O-])cc4)CC(=O)N(C4CCCCC4)[C@@H]3c3ccc(CO)cc32)cc1; -0.33

# input for lookup
Requested field: composite z-score. Item: C=CC[C@@]1(C(=O)NCc2ccccc2)N=C(c2ccc(OCCCO)cc2)O[C@@H]1c1ccccc1N=[N+]=[N-]
1.74
